- MEASUREMENT_TARGET: OsWOX13 (Oryza sativa, UniProt Q5QMM3 1-267)
- Sequence: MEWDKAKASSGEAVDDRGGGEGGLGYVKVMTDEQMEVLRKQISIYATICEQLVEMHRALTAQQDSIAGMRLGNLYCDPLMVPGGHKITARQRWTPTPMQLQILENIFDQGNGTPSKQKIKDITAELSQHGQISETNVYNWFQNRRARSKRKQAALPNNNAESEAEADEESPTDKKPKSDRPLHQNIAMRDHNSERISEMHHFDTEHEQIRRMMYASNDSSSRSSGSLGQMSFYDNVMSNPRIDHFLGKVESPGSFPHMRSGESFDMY
- MEASUREMENT_DESCRIPTION: protein-binding microarray (RPBM); PBS, 2% BSA, 51.3 ng/ul salmon testes DNA, 50 uM zinc acetate, 200 nM TF, 25 C, 1 h; high values mean tight binding
- APPLIED_CONDITIONS: protein: recombinant; tags: N-terminal polyhistidine and DsRed monomer fusion (pET32a); label: CyDye5-dUTP incorporated in the synthesized complementary strand; 3' TTTTT single-stranded linker to array surface; dsDNA, one strand shown
The full ranking holds about 35,000 sequences; the median of “fluorescence intensity (a.u.)” is about 10,000, and the highest 2% start at about 52,000. What follows is part of a selection rich in the highest values, with near analogues and random picks from the rest.
QUANTITY: binding signal

The cases that follow already have their binding signal on record.
GGGGACATAAATCCTGATGATTTCCTCAACTTTGATCTTGCGGAGTCACCTAGTGCAG; 3630 fluorescence intensity (a.u.)
CTAAACACGTTGATGGGCCTGAATGGAGGAAGCCCATCGACGGAGTCACCTAGTGCAG; 3790 fluorescence intensity (a.u.)
GTGCTAATATAATTTAAATAACTAGTTTGACGGACAAATCCGGAGTCACCTAGTGCAG; 10800 fluorescence intensity (a.u.)
AAGAAAATTTAAAACAATTGATTACATACTAAATTAATATCGGAGTCACCTAGTGCAG; 9840 fluorescence intensity (a.u.)
CCCAGTCAATCTCCCCATCTCCTCGGCCTCGGCAATAGTACGGAGTCACCTAGTGCAG; 7200 fluorescence intensity (a.u.)
CATAAATCATTTCTTTTGTTTTCAAACTAAGCATATTTGACGGAGTCACCTAGTGCAG; 4540 fluorescence intensity (a.u.)
CCGTCGCCTGATGGAGCAGAATCGTGAAACACGTTGTAAGCGGAGTCACCTAGTGCAG; 57800 fluorescence intensity (a.u.)
GTGGCATTTAGGTAATTAATTTAGTTTTATTTGTTACCTGCGGAGTCACCTAGTGCAG; 10200 fluorescence intensity (a.u.)
CCCTAATTATGGTACGTGTTGATCGTGCCACTTCTTCCTCCGGAGTCACCTAGTGCAG; 39500 fluorescence intensity (a.u.)
CTCGTTAGATTTTGATCAATGATTAGTCCAAATTATACATCGGAGTCACCTAGTGCAG; 15200 fluorescence intensity (a.u.)

Ask: Find the recorded binding signal belonging to GAGATAGAGATAATAGAAAGATTAAACAAGATTCGATAGACGGAGTCACCTAGTGCAG and report it.
Reply: 3590 fluorescence intensity (a.u.)

Ask: Find the recorded binding signal belonging to TTTGCCACTAATTAATCTACTAATGGCTTATGATAGTCATCGGAGTCACCTAGTGCAG and report it.
Reply: 10700 fluorescence intensity (a.u.)

Ask: Find the recorded binding signal belonging to TTATATAGTTACCAAAATTTGACAGCAAACTAAATGTAGCCGGAGTCACCTAGTGCAG and report it.
Reply: 3680 fluorescence intensity (a.u.)

Ask: Find the recorded binding signal belonging to TTGACAGTTAATCCTAGGTCTATCTATCGCACTGAGTTTGCGGAGTCACCTAGTGCAG and report it.
Reply: 12400 fluorescence intensity (a.u.)

Ask: Find the recorded binding signal belonging to ATATAGTTACCAAAATTTGACAGCAAACTAAATGTAGCCACGGAGTCACCTAGTGCAG and report it.
Reply: 7890 fluorescence intensity (a.u.)

Ask: Find the recorded binding signal belonging to AGGGTGATTGACAGGTGGGTCCATCCCCTCACATGCCAGGCGGAGTCACCTAGTGCAG and report it.
Reply: 64800 fluorescence intensity (a.u.)

Ask: Find the recorded binding signal belonging to CTTAATTAATTAATAGCAGCAGCAATGCCACTGTGGCCATCGGAGTCACCTAGTGCAG and report it.
Reply: 53500 fluorescence intensity (a.u.)

Ask: Find the recorded binding signal belonging to CAATCATTGATTGTTACTTTGTTAGTAATTGGTTAGTATACGGAGTCACCTAGTGCAG and report it.
Reply: 30100 fluorescence intensity (a.u.)

Ask: Find the recorded binding signal belonging to TTGCCAATTATGATTGGAGATTTACAAGTAGACTTCAATACGGAGTCACCTAGTGCAG and report it.
Reply: 18500 fluorescence intensity (a.u.)

Ask: Find the recorded binding signal belonging to ATATCAATTAATGCTTCAAGATTAGCACCCATATTATATGCGGAGTCACCTAGTGCAG and report it.
Reply: 35100 fluorescence intensity (a.u.)

Ask: Find the recorded binding signal belonging to TAGTAATTGATTGCTGCCAAGATTACATTACTGCCCAATACGGAGTCACCTAGTGCAG and report it.
Reply: 65500 fluorescence intensity (a.u.)

Ask: Find the recorded binding signal belonging to CTGATTAAGATCACTAATTGATCTGTCCACATTGCATCCTCGGAGTCACCTAGTGCAG and report it.
Reply: 54800 fluorescence intensity (a.u.)
